# ASSAY_COMMENT: NCI Yeast Anticancer Drug Screen. Data for the rad50EPP+ strain (AID 151);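 also: 0% = growth of vehicle-treated control cultures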
# DETAILS: S. cerevisiae rad50 mutant strain, at 100.0 µM, hits give high values
# Procedure: Growth inhibition of yeast strains with defined genetic alterations is measured as a screen for potential anti-cancer activity. Selected strains with alterations in DNA damage repair or cell cycle control were exposed to compounds and growth inhibition was measured relative to vehicle treated controls. The strain used in this assay is rad50EPP+
About 79,000 compounds went through this panel and 15% of them were active in at least one assay; those are over-represented in the sample as a whole.
Outcome label depends on growth inhibition relative to 80%: at/above gives 1, below gives -1.

• c1ccc2c(c1)C(=NCCCN1CCCCCC1)c1cccn1-2 = -1
• COc1ccc(C2c3cc4c(cc3OC(C)(O)C2C)OCO4)c(OC)c1 (stereo unspecified) = -1
• O=c1c2ccccc2ncn1COCc1ccccc1 = -1
• CN(C)C[C@H]1CC[C@@H](CN(C)C)C1=O = 1
• O=C(c1ccc(Cl)cc1Cl)C(Cl)Cl = 1
• CC/C(=C(\c1ccccc1)c1ccc(OCCN(C)C)cc1)c1ccccc1 = 1
• CN(C)CCOc1ccc2c(c1)C/C(=C/c1ncc([N+](=O)[O-])n1C)C2=O = -1
• CC1C(NNc2ccccc2)Oc2cc3c(cc2C1c1ccccc1O)OCO3 (stereo unspecified) = 1
• CC(=O)Nc1ccc(/C=C(\C#N)c2ccc(C)cc2)cc1 = -1
• CC(C)[N+]([O-])(CCCNc1c2ccccc2nc2cccc([N+](=O)[O-])c12)C(C)C = 1
